- subjectOfTest: UniProtKB Q9Y2K2
- Sequence (Q9Y2K2 whole entry): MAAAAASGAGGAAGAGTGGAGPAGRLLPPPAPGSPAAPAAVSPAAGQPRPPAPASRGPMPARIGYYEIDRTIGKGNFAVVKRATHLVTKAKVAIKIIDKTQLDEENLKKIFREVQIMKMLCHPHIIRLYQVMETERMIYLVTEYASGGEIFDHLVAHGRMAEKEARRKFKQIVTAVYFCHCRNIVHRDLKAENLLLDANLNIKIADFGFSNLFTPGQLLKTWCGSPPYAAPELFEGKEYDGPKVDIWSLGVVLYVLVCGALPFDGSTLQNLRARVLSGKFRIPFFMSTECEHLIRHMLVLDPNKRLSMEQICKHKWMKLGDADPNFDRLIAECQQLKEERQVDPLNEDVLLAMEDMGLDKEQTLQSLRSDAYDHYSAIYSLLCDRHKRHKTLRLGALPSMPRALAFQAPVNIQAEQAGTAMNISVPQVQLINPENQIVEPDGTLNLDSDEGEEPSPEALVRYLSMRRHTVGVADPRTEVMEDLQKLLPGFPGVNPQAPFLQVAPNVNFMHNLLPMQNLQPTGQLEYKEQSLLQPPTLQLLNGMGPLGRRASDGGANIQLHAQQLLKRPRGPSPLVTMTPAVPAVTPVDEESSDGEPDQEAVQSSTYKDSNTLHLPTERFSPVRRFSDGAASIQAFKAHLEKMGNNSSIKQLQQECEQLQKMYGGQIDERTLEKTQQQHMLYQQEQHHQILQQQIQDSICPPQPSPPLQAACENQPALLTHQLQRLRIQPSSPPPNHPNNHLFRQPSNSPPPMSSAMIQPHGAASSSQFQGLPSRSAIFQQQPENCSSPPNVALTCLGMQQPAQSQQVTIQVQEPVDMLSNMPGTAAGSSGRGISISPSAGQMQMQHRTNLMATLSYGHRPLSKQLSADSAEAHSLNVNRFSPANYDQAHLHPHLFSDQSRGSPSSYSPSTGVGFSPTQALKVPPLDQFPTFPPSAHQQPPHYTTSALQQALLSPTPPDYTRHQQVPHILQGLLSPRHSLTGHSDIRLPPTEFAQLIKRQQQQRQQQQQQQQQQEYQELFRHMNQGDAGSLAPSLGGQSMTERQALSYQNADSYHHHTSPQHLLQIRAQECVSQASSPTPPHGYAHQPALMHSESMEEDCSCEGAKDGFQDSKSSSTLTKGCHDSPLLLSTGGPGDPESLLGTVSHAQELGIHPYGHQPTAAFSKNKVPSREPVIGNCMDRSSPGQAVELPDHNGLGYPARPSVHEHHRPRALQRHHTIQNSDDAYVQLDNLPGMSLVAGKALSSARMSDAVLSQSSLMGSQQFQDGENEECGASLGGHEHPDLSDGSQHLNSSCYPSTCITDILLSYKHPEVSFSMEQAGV
- assayInfo: Percent activity against SIK3 at 1 μM
- Assay type: biochemical
- settings: compound at 1 μM; approximate Km for ATP
readoutType: SIK3 % ACTIVITY (%)
Lab book: enter the figure in %, no units written.

Examples with answers:
Item under review: `CN1CCN(c2ccc(Nc3ncc4c(n3)N(C)C(=O)N(c3ccccc3)C4)cc2)CC1` . Reported SIK3 % ACTIVITY?
8.6

Find the recorded SIK3 % ACTIVITY belonging to `COc1ccc(N2C(=O)N(c3c(C)cccc3C)Cc3cnc(Nc4cc(N5CCOCC5)cc(N5CCN(C)CC5)c4)nc32)c(OC)c1` and report it.
9.3

More entries:
Endpoint output: SIK3 % ACTIVITY of `COc1ccc(N2C(=O)N(c3c(C)cccc3C)Cc3cnc(Nc4ccc(N5CCN(C)CC5)cc4OC)nc32)c(OC)c1` . Value?
7.5

Data request, read-out SIK3 % ACTIVITY, for `COc1ccc(N2C(=O)N(c3c(C)cccc3C)Cc3cnc(Nc4ccc(N5CCN(C)CC5)cc4)nc32)c(OC)c1`
9

* * *

- subjectOfTest: SIK1 (Homo sapiens (Human))
- Sequence (P57059 whole entry): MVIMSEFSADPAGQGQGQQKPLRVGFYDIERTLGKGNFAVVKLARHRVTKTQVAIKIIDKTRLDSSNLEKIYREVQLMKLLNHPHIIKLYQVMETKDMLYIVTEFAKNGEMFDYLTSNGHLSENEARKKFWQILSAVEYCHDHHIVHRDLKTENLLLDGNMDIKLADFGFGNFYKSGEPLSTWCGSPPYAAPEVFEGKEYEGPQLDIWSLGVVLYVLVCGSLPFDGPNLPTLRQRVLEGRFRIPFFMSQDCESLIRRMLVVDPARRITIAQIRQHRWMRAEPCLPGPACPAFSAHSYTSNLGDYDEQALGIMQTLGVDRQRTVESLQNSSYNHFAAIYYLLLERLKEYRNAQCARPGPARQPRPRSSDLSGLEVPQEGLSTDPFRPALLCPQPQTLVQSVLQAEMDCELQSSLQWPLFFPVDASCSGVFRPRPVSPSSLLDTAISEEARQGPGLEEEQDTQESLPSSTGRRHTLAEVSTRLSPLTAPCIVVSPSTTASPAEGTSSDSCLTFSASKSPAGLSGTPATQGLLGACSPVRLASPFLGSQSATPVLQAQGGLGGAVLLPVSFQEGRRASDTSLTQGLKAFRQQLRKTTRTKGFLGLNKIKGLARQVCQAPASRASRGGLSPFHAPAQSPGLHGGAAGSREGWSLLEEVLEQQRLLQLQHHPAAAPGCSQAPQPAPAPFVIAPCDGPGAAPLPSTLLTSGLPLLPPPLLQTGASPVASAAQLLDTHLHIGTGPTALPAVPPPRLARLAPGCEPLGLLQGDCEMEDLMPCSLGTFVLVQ
- assayInfo: Percent activity against SIK1 at 1 μM
- Assay type: biochemical
- settings: 1 μM
If the reported Enzyme activity at 1 μM (%) SIK1 equals or exceeds 10%, assign 1. If not, assign 0.

Check out these entries, answers already filled in.
Confirm if Enzyme activity at 1 μM (%) SIK1 reported for the molecule Cc1ccc(NC(=O)c2cccc(C(F)(F)F)c2)cc1N1Cc2cnc(Nc3ccc(N4CCN(C)CC4)cc3)nc2N(C)C1=O [HG-11-23-01] is 10% or above.
1

Textbook exercise: given the entry COc1ccc(N2C(=O)N(c3c(C)cccc3C)Cc3cnc(Nc4cc(N5CCOCC5)cc(N5CCN(C)CC5)c4)nc32)c(OC)c1 [HG-11-143-01] , state whether its Enzyme activity at 1 μM (%) SIK1 is greater than or equal to 10%.
0

Check if Enzyme activity at 1 μM (%) SIK1 >= 10% (inclusive). Item: COc1ccc(N2C(=O)N(c3c(C)cccc3C)Cc3cnc(Nc4ccc(N5CCN(C)CC5)cc4OC)nc32)c(OC)c1 [HG-11-139-01]
1

Tell me whether Enzyme activity at 1 μM (%) SIK1 is at least 10% here: COc1ccc(N2C(=O)N(c3c(C)cccc3C)Cc3cnc(Nc4ccc(N5CCN(C)CC5)cc4)nc32)c(OC)c1 [HG-11-136-01]
1

Kindly consider the entry below.
# bool: Enzyme activity at 1 μM (%) SIK1 of CN1CCN(c2ccc(Nc3ncc4c(n3)N(C)C(=O)N(c3ccccc3)C4)cc2)CC1 [HG-11-137-01] >= 10%
1
